- System: SUDHL5
- assay: Anti-proliferative effect (CellTiter-Glo, 72 h), SUDHL5
- Format: cell-based
- condition_info: Homo sapiens, SU-DHL-5, 72 h, SUDHL5 cells, antiproliferation, 72 h incubation, median, read-out: Antiproli SUDHL5 [M] (median)
readout_kind: IC50 (M)

Examples from the recorded data:
CN1CCCn2c(C(=O)O)c(CCCOc3cccc4ccccc34)c3cccc(c32)-c2c(CN3CCOCC3)nn(C)c2C1 (racemic) [Example 1-42]
7.08e-06
Cn1ccnc1COCc1nn(C)c2c1-c1cccc3c(CCCOc4cccc5ccccc45)c(C(=O)O)n(c13)CCCCOC2 (racemic)
8.1e-06
CCc1c2c(nn1C)CN(C)CCCn1c(C(=O)O)c(CCCOc3cccc4ccccc34)c3ccc(C)c-2c31 (racemic)
1.33e-06
COCC(=O)N1CCN(c2ccc(OCc3nn(C)c4c3-c3cccc5c(CCCOc6cccc7ccccc67)c(C(=O)O)n(c35)CCCCOC4)cc2)CC1 (racemic) [Example 1-27]
2.95e-06
COCCn1nc2c(c1C1CC1)-c1cccc3c(CCCOc4cccc5ccccc45)c(C(=O)O)n(c13)CCCCOC2 (racemic)
7.19e-06

A = Cn1nc(CO)c2c1COCCCCn1c(C(=O)O)c(CCCOc3cccc4ccccc34)c3cccc-2c31 (racemic)
B = CCn1nc(C2CC2)c2c1COCCCCn1c(C(=O)O)c(CCCOc3cccc4ccccc34)c3cccc-2c31 (single isomer, unassigned; enantiomer 1) [Example 089]
Lab log: flag the item ( A or B ) with the smaller IC50 figure. When you have decided, please share the label of that item.
A

1 = Cc1c2c(nn1CCN1CCOCC1)COCCCCn1c(C(=O)O)c(CCCOc3cccc4ccccc34)c3cccc-2c31 (racemic) [Example 053]
2 = Cc1nn(C)c2c1-c1cccc3c(CCCOc4cccc5ccccc45)c(C(=O)O)n(c13)CCCCN2Cc1ccccc1
3 = CCc1nn(C)c2c1-c1c(C)ccc3c(CCCOc4cccc5c4CCCC5)c(C(=O)O)n(c13)CCCCOC2 (racemic)
// sort entries: IC50, high to low Please reply with the labels ordered as requested. Many thanks.
2, 3, 1

I = CN1CCCn2c(C(=O)O)c(CCCOc3cccc4ccccc34)c3cccc(c32)-c2c(CNCC(F)(F)F)nn(C)c2C1 (single isomer, unassigned; enantiomer 1)
II = CCc1nn(C)c2c1-c1c(C)ccc3c(C(C)CCOc4cccc5cc(F)ccc45)c(C(=O)O)n(c13)CCCCOC2 (racemic)
I or II : whose IC50 is greater? // respond with label for picked entry
I
